Every entry's value here was drawn from PubChem BioAssay.

Test: Wnt pathway potentiators raising nuclear beta-catenin – imaging, WNT3A-conditioned medium, mouse C2C12, NPC library, primary screen (AID 1117326); also: reference of the scale not given here
Details: at 10 µM, stronger effect = higher value
# maps each entry to its nuclear beta-catenin stimulation

- molecule: "CC(=O)Nc1ccccc1"
  nuclear beta-catenin stimulation (%): 5.2
- molecule: "Nc1nc2c(ncn2CCC(CO)CO)c(=O)[nH]1"
  nuclear beta-catenin stimulation (%): 0.5
- molecule: "CC[N+](C)(CC)CCOC(=O)C(O)(c1ccccc1)C1CCCCC1 (stereo not drawn)"
  nuclear beta-catenin stimulation (%): -1

###

# maps each entry to its nuclear beta-catenin stimulation
Assay: Wnt pathway potentiators raising nuclear beta-catenin – imaging, WNT3A-conditioned medium, mouse C2C12, NPC library, primary screen (AID 1117326); also: reference of the scale not given here
Conditions: stimulation, at 2 µM, stronger effect = higher value

- input smiles: "CN1C(C(=O)Nc2ccccn2)=C(O)c2sccc2S1(=O)=O"
  nuclear beta-catenin stimulation [%]: 1
- input smiles: "CNS(=O)(=O)Cc1ccc2[nH]cc(CCN(C)C)c2c1"
  nuclear beta-catenin stimulation [%]: 0.4
- input smiles: "CN(C)CCCN1c2ccccc2Sc2ccccc21"
  nuclear beta-catenin stimulation [%]: 1.6
- input smiles: "NS(=O)(=O)c1cc2c(cc1Cl)NC(CSCc1ccccc1)=NS2(=O)=O"
  nuclear beta-catenin stimulation [%]: 0.7
- input smiles: "Cn1c(=O)c2c(ncn2CCO)n(C)c1=O"
  nuclear beta-catenin stimulation [%]: 1.4
- input smiles: "CCOC(=O)O[C@]1(C(=O)OCCl)CC[C@H]2[C@@H]3CCC4=CC(=O)C=C[C@]4(C)[C@H]3[C@@H](O)C[C@@]21C"
  nuclear beta-catenin stimulation [%]: -0.3
- input smiles: "Cc1cc(=O)n(-c2ccccc2)n1C"
  nuclear beta-catenin stimulation [%]: 0.3
- input smiles: "N#Cc1ccc(C(c2ccc(C#N)cc2)n2cncn2)cc1"
  nuclear beta-catenin stimulation [%]: 0
- input smiles: "Cn1c([N+](=O)[O-])cnc1COC(N)=O"
  nuclear beta-catenin stimulation [%]: 0.6
- input smiles: "Cn1cnc2c1c(=O)[nH]c(=O)n2C"
  nuclear beta-catenin stimulation [%]: 1
- input smiles: "CCN(CC)CCOCCOC(=O)C1(c2ccccc2)CCCC1"
  nuclear beta-catenin stimulation [%]: -0.4
- input smiles: "Nc1ncnc2c1ncn2[C@@H]1O[C@H](COP(=O)(O)O)[C@@H](O)[C@H]1O"
  nuclear beta-catenin stimulation [%]: 3.8
- input smiles: "CN(C)CCOC(=O)COc1ccc(Cl)cc1"
  nuclear beta-catenin stimulation [%]: 1
- input smiles: "CC(=O)N(O)CCCCCNC(=O)CCC(=O)N(O)CCCCCNC(=O)CCC(=O)N(O)CCCCCN"
  nuclear beta-catenin stimulation [%]: -1.8
- input smiles: "CCCCC1C(=O)N(c2ccccc2)N(c2ccccc2)C1=O"
  nuclear beta-catenin stimulation [%]: -0.9
- input smiles: "Cc1nnc(NS(=O)(=O)c2ccc(N)cc2)s1"
  nuclear beta-catenin stimulation [%]: 1.2
- input smiles: "CC(=O)O[C@]1(C(C)=O)CC[C@H]2[C@@H]3C=C(Cl)C4=CC(=O)CC[C@]4(C)[C@H]3CC[C@@]21C"
  nuclear beta-catenin stimulation [%]: -0.3

###

Target: NAD(+) hydrolase SARM1 (Homo sapiens)
Test: blocking NAD cleavage by SARM1 SAM-TIR – cell lysate, NAD-Glo luminescence (AID 1508614);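 also: higher remaining NAD means stronger inhibition of SARM1 NADase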
Settings: SAM-TIR HEK293T lysate NADase, at 1 µM
The source made the active and inactive calls.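 How the source made its calls: active means compound whose remaining NAD level is above about 45 nM (limit read from the data); inactive means the rest.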
Labels: yes (1) = active, no (0) = inactive

- compound: "O=C(O)CCCCC1CCSS1 (stereo not drawn)"
  assigned category: "no (0)"
- compound: "Oc1ccc(Cl)cc1Cc1cc(Cl)ccc1O"
  assigned category: "no (0)"
- compound: "COc1cc(C(=O)NCc2ccc(OCCN(C)C)cc2)cc(OC)c1OC"
  assigned category: "no (0)"
- compound: "CC(C)NNC(=O)c1ccncc1"
  assigned category: "no (0)"
- compound: "CCN(CC)Cc1cc(Nc2ccnc3cc(Cl)ccc23)ccc1O"
  assigned category: "no (0)"
- compound: "Cc1cnc(C(=O)O)c[n+]1[O-]"
  assigned category: "no (0)"
- compound: "Nc1ncnc2c1ncn2[C@@H]1O[C@H](CO)[C@@H](O)[C@H]1O"
  assigned category: "no (0)"
- compound: "CC(NCCC(c1ccccc1)c1ccccc1)c1ccccc1 (stereo not drawn)"
  assigned category: "no (0)"
- compound: "C=Cc1c(C)c2cc3[nH]c(cc4nc(cc5nc(cc1[nH]2)C(C)=C5CCC(=O)O)C(CCC(=O)O)=C4C)c(C)c3C=C"
  assigned category: "no (0)"
- compound: "CCc1nn(CCCN2CCN(c3cccc(Cl)c3)CC2)c(=O)n1CCOc1ccccc1"
  assigned category: "no (0)"
- compound: "CC(C)(C(=O)c1cccnc1)c1cccnc1"
  assigned category: "yes (1)"
- compound: "C[N+]12CCC(CC1)C(OC(=O)C(O)(c1ccccc1)c1ccccc1)C2 (stereo not drawn)"
  assigned category: "no (0)"
- compound: "CC[N+](C)(CC)CCOC(=O)C(O)(c1ccccc1)C1CCCCC1 (stereo not drawn)"
  assigned category: "no (0)"
- compound: "OCCOCCN1CCN(C2=Nc3ccccc3Sc3ccccc32)CC1"
  assigned category: "no (0)"
- compound: "Nc1nc2c(c(=O)[nH]1)N(C=O)C(CNc1ccc(C(=O)N[C@@H](CCC(=O)O)C(=O)O)cc1)CN2 (stereo partly drawn)"
  assigned category: "no (0)"
- compound: "CCCCOc1ccc(C(=O)CCN2CCCCC2)cc1"
  assigned category: "no (0)"
- compound: "COc1ccc(CC2c3cc(OC)c(OC)cc3CC[N+]2(C)CCC(=O)OCCCCCOC(=O)CC[N+]2(C)CCc3cc(OC)c(OC)cc3C2Cc2ccc(OC)c(OC)c2)cc1OC (stereo not drawn)"
  assigned category: "no (0)"
- compound: "Nc1ccc(C(=O)O)c(O)c1"
  assigned category: "no (0)"
- compound: "C[C@@H]1C[C@H]2[C@@H]3CCC4=CC(=O)C=C[C@]4(C)[C@@]3(F)[C@@H](O)C[C@]2(C)[C@H]1C(=O)CO"
  assigned category: "no (0)"
- compound: "CCC(=O)c1c(O)cc(O)cc1O"
  assigned category: "no (0)"
- compound: "CCn1cc(C(=O)O)c(=O)c2cnc(N3CCNCC3)nc21"
  assigned category: "no (0)"
- compound: "COc1ccc(CN(CCN(C)C)c2ncccn2)cc1"
  assigned category: "no (0)"
- compound: "CN(Cc1cc(Br)cc(Br)c1N)C1CCCCC1"
  assigned category: "no (0)"
- compound: "COc1cc(NS(=O)(=O)c2ccc(N)cc2)ncn1"
  assigned category: "no (0)"
- compound: "O=C1CCc2ccc(OCCCCN3CCN(c4cccc(Cl)c4Cl)CC3)cc2N1"
  assigned category: "no (0)"
- compound: "Cn1c([N+](=O)[O-])cnc1COC(N)=O"
  assigned category: "no (0)"
- compound: "Nc1ccc(C(=O)O)cc1"
  assigned category: "no (0)"
- compound: "CSc1ccc2c(c1)C(N1CCN(C)CC1)Cc1ccccc1S2 (stereo not drawn)"
  assigned category: "no (0)"
- compound: "S=P(N1CC1)(N1CC1)N1CC1"
  assigned category: "no (0)"
- compound: "CCCCC1(COC(=O)CCC(=O)O)C(=O)N(c2ccccc2)N(c2ccccc2)C1=O"
  assigned category: "no (0)"
- compound: "CN1Cc2c(N)cccc2C(c2ccccc2)C1 (stereo not drawn)"
  assigned category: "no (0)"
- compound: "CCOC(=O)NNc1nncc2ccccc12"
  assigned category: "no (0)"
- compound: "CN1CCCCC1CCN1c2ccccc2Sc2ccc(S(C)=O)cc21 (stereo not drawn)"
  assigned category: "no (0)"
- compound: "Nc1ccc(C(=O)Oc2ccccc2)c(O)c1"
  assigned category: "no (0)"
- compound: "CN1[C@@H]2CC[C@H]1CC(OC(=O)C(O)c1ccccc1)C2 (stereo partly drawn)"
  assigned category: "no (0)"
- compound: "CC(=O)OCC(=O)[C@@]1(O)[C@H](OC(C)=O)C[C@H]2[C@@H]3CCC4=CC(=O)C=C[C@]4(C)[C@@]3(F)[C@@H](O)C[C@@]21C"
  assigned category: "no (0)"
- compound: "Cc1ccc2c(Cl)cc(Cl)c(O)c2n1"
  assigned category: "no (0)"
- compound: "CC/C(=C(/CC)c1ccc(O)cc1)c1ccc(O)cc1"
  assigned category: "no (0)"
